- Test system: Botrytis cinerea
- measurementProtocol: Vine grey mold (grape berries)
- Type: in vivo
- details: grape berries treated with 50 ppm, average of six berries, 7-10 days, read-out: % DISEASE CONTROL 50 ppm
Category scheme (pest or weed control at 50 ppm): low value = under 10%, medium value = from 10% up to 70%, high value = 70% and over

compound=Cn1cc(C(=O)Nc2ccccc2C2CCCCC2)c(OC(F)F)n1 testedsystem="Botrytis cinerea" assignedlabel="low value"
compound="Cn1cc(C(=O)Nc2ccccc2O[C@@H]2C[C@H]3CC[C@@H]2C3)c(C(F)(F)F)n1 (relative stereo)" testedsystem="Botrytis cinerea" assignedlabel="low value"
compound=Cn1cc(C(=O)Nc2ccccc2C=C2CCCCC2)c(C(F)(F)F)n1 testedsystem="Botrytis cinerea" assignedlabel="low value"
compound=CC(=C1CCCC1)c1ccccc1NC(=O)c1cn(C)nc1C(F)(F)F testedsystem="Botrytis cinerea" assignedlabel="medium value"
compound=O=C(Nc1ccccc1C1CCCCC1)c1cn(C(F)F)nc1C(F)F testedsystem="Botrytis cinerea" assignedlabel="low value"
compound=Cn1cc(C(=O)Nc2ccccc2C2CCCCCC2)c(Br)n1 testedsystem="Botrytis cinerea" assignedlabel="medium value"
compound=Cn1cc(C(=O)Nc2ccc(F)cc2C2(C)CCCCC2)c(C(F)(F)F)n1 testedsystem="Botrytis cinerea" assignedlabel="medium value"
compound=Cn1cc(C(=O)Nc2ccccc2C2=CCCC2(C)C)c(C(F)F)n1 testedsystem="Botrytis cinerea" assignedlabel="medium value"
compound=Cc1c(C(=O)Nc2ccccc2C2CCCCCC2)c(Cl)nn1C testedsystem="Botrytis cinerea" assignedlabel="low value"
compound=Cn1cc(C(=O)Nc2cccc(F)c2C2CCCCC2)c(C(F)F)n1 testedsystem="Botrytis cinerea" assignedlabel="high value"
compound=Cn1cc(C(=O)Nc2ccccc2C2(C)CCCC2)c(C(F)(F)F)n1 testedsystem="Botrytis cinerea" assignedlabel="medium value"
compound=Cc1cccc(NC(=O)c2cn(C)nc2C(F)F)c1C1CCCCC1 testedsystem="Botrytis cinerea" assignedlabel="high value"
compound=Cn1cc(C(=O)Nc2ccccc2C2CCCCCCC2)c(C(F)(F)F)n1 testedsystem="Botrytis cinerea" assignedlabel="medium value"
compound=Cn1cc(C(=O)Nc2cc(F)ccc2C2CCCCC2)c(C(F)F)n1 testedsystem="Botrytis cinerea" assignedlabel="medium value"
compound=Cn1nc(C(F)F)c(C(=O)Nc2ccccc2C2CCCCCC2)c1F testedsystem="Botrytis cinerea" assignedlabel="medium value"
compound=Cn1cc(C(=O)Nc2ccccc2C2CC(C)(C)CC(C)(C)C2)c(C(F)(F)F)n1 testedsystem="Botrytis cinerea" assignedlabel="low value"
compound=Cn1cc(C(=O)Nc2ccccc2C2CCCC2)c(I)n1 testedsystem="Botrytis cinerea" assignedlabel="medium value"
compound=Cn1cc(C(=O)Nc2ccccc2C2=CC(C)(C)CC(C)(C)C2)c(C(F)F)n1 testedsystem="Botrytis cinerea" assignedlabel="medium value"
compound=Cn1nc(C(F)F)c(C(=O)Nc2ccccc2C2CCCCCC2)c1Cl testedsystem="Botrytis cinerea" assignedlabel="high value"
compound=Cn1cc(C(=O)Nc2ccccc2C2CCCCCCC2)c(I)n1 testedsystem="Botrytis cinerea" assignedlabel="high value"
compound=Cc1nn(C)c(C)c1C(=O)Nc1ccccc1C1CCCCC1 testedsystem="Botrytis cinerea" assignedlabel="high value"
compound=Cn1cc(C(=O)Nc2ccccc2O[C@H]2CC[C@H](C)CC2)c(C(F)(F)F)n1 testedsystem="Botrytis cinerea" assignedlabel="low value"
compound=Cn1cc(C(=O)Nc2ccccc2C2=CCOCC2)c(C(F)(F)F)n1 testedsystem="Botrytis cinerea" assignedlabel="medium value"
compound=Cn1cc(C(=O)Nc2ccccc2C2CCCCCCC2)c(C(F)F)n1 testedsystem="Botrytis cinerea" assignedlabel="high value"
compound=CC(C)C1=C(c2ccccc2NC(=O)c2cn(C)nc2C(F)(F)F)CCCC1 testedsystem="Botrytis cinerea" assignedlabel="low value"
